# measurementProtocol: SUPPLEMENTARY: PAMPA permeability assay
# Format: physicochemical
# conditionsUsed: read-out: Permeability
experimentalEndpoint: Papp
Include the unit after the number when you answer.

Below: 8 molecules and their reported Papp.
smilesData: Nc1cc(-c2nc([C@H]3CCCCN3C(=O)COc3ccccc3)no2)ccn1
result: 4.86 ×10⁻⁶ cm/s
--
smilesData: O=C(COc1ccccc1)N1CCCC[C@@H]1c1noc(-c2ccc(Cl)nc2)n1
result: 5.17 ×10⁻⁶ cm/s
--
smilesData: Cc1cc(C)cc(S(=O)(=O)c2nn(CCC(=O)O)c3ccc(C(=O)Nc4ccccc4)cc23)c1
result: 0.91 ×10⁻⁶ cm/s
--
smilesData: COc1ccc(Cl)cc1S(=O)(=O)c1c2cc(C(=O)Nc3ccc(C(=O)O)cc3)ccc2nn1C
result: 2.25 ×10⁻⁶ cm/s
--
smilesData: O=C(O)Cc1ccc(NC(=O)c2ccc3ccn(S(=O)(=O)c4cccc(Cl)c4)c3c2)cc1
result: 2.24 ×10⁻⁶ cm/s
--
smilesData: COc1ccc(Cl)cc1S(=O)(=O)c1cn(C)c2ccc(C(=O)Nc3ccc(C(=O)O)cc3)cc12
result: 0.47 ×10⁻⁶ cm/s
--
smilesData: Cc1cc(C)cc(S(=O)(=O)c2n[nH]c3ccc(C(=O)Nc4ccc(C(=O)O)cc4)cc23)c1
result: 0.03 ×10⁻⁶ cm/s
--
smilesData: COc1ccc(Cl)cc1S(=O)(=O)c1nn(CCC(=O)O)c2ccc(C(=O)Nc3ccccc3)cc12
result: 0.67 ×10⁻⁶ cm/s

Dear colleague, I am looking for the recorded Papp of the following molecule: O=C(COc1ccccc1)N1CCCC[C@@H]1c1nc(-c2cccc(N3CCCS3(=O)=O)c2)no1
24.5 ×10⁻⁶ cm/s

Query COc1ccc(Cl)cc1S(=O)(=O)N1CCc2ccc(C(=O)Nc3ccc(C(=O)O)c(F)c3)cc21 next
1.67 ×10⁻⁶ cm/s

Query CCOc1ccc2c(c1)CN(C(=O)[C@H]1CCCCN1C(=O)COc1ccccc1)C2 next
5.52 ×10⁻⁶ cm/s

Query CC1(C)NC(=O)N(c2ccc(Cl)c(-c3nc([C@H]4CCCCN4C(=O)COc4ccccc4)no3)c2)C1=O next
0.49 ×10⁻⁶ cm/s

Query CN(C)C(=O)CCC(=O)Nc1cc(F)cc(-c2noc([C@H]3CCCCN3C(=O)COc3ccccc3)n2)c1 next
0.83 ×10⁻⁶ cm/s

Query Nc1ccc(-c2n[nH]c([C@H]3CCCCN3C(=O)COc3ccccc3)n2)cn1 next
3.97 ×10⁻⁶ cm/s

Query O=C1Cc2ccc(-c3noc([C@H]4CCCCN4C(=O)COc4ccccc4)n3)cc2N1 next
1.46 ×10⁻⁶ cm/s
